Where do the numbers come from? From paper PMC11433573.

target: UniProtKB Q05941
Sequence (Q05941 23-502): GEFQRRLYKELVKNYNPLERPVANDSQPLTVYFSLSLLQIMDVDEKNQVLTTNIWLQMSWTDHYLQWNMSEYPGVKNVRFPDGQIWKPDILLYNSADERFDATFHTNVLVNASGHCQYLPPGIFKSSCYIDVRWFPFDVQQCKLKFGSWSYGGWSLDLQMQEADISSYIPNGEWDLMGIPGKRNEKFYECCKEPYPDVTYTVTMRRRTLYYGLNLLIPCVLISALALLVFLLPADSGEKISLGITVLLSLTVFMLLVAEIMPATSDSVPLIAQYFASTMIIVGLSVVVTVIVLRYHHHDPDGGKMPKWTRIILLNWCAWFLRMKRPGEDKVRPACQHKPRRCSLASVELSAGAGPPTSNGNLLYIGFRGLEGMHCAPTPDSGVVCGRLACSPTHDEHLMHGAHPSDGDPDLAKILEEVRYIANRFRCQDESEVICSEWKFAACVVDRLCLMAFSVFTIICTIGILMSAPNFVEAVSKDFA
Positions of bridges follow the written chain, without caps; N, C: chain ends. Residues, ends and D or L forms follow the SMILES beside them.
MEASURED ATTRIBUTE: IC50 (nM)
Entry rule: numbers only, all in nM.

Problem: # query: IC50 | item CC[C@H](C)[C@@H]1NC(=O)[C@H](Cc2c[nH]cn2)NC(=O)[C@@H]2CCCN2C(=O)[C@H](CC(N)=O)NC(=O)[C@H](CC(N)=O)NC(=O)[C@H](C(C)C)NC(=O)[C@H](CC(N)=O)NC(=O)[C@@H]2CSSC[C@H](NC(=O)CN)C(=O)N[C@@H](CSSC[C@@H](C(N)=O)NC1=O)C(=O)N[C@@H](CO)C(=O)N[C@@H](CO)C(=O)N1CCC[C@H]1C(=O)N[C@@H](C)C(=O)N2 [[H5S]RegIIA] (H-GCCSSPACNVNNPHIC-NH2; disulfide 2-8, 3-16) | system: UniProtKB Q05941
Result: 100
